system: NF-κB activation; test: NF-κB activation reporter assay (pNFκB-Luc luciferase) under TNF-α stimulation; assay type: cell-based, human; details: Homo sapiens; Concentration of the agent: 1 μg/mL; HepG2 or HeLa cells, TNF-α 40 ng/ml, 4 hours; read-out: The rate of inhibitory activity against NF-κB activation (%)
For each of the compounds below, state its inhibition at 1 µg/mL.
Kindly answer with a numeric value in %, unit omitted.

-- ask Could you share what inhibition at 1 µg/mL was measured for CCn1c2ccccc2c2cc(NC(=O)c3cc(Cl)ccc3O)ccc21 [Compound 47] , tested on NF-κB activation?
-- reply 91.3

-- ask State its inhibition at 1 µg/mL on NF-κB activation: Cc1ccc(NC(=O)c2cc(Cl)ccc2O)cc1C(F)(F)F [Compound 119]
-- reply 88.1

-- ask Please provide the recorded inhibition at 1 µg/mL for O=C(Nc1cc(C(F)(F)F)ccc1N1CCOCC1)c1cc(Br)ccc1O [Compound 127] , tested on NF-κB activation.
-- reply 81.8

-- ask Kindly state the measured inhibition at 1 µg/mL obtained for O=C(Nc1cc(Cl)cc(Cl)c1)c1cc(Br)cc(Br)c1O [Compound 150] with NF-κB activation.
-- reply 91.4

-- ask Record O=C(Nc1cc(C(F)(F)F)ccc1Cl)c1cc(Br)ccc1O [Compound 114] : what is its inhibition at 1 µg/mL with NF-κB activation?
-- reply 88.9

-- ask Request - read-out inhibition at 1 µg/mL | tested on NF-κB activation | compound O=C(Nc1cc(F)cc(C(F)(F)F)c1)c1cc(Cl)ccc1O [Compound 110]
-- reply 94.7

-- ask Test system NF-κB activation; read-out inhibition at 1 µg/mL; what value for O=C(Nc1ccc(C(F)(F)F)cc1)c1cc(Cl)ccc1O [Compound 128] ?
-- reply 87.2

-- ask Request body: readout inhibition at 1 µg/mL, system NF-κB activation, query C#Cc1ccc(O)c(C(=O)Nc2cc(C(F)(F)F)cc(C(F)(F)F)c2)c1 [Compound 64] . Return the value.
-- reply 53.3

-- ask Give the reported inhibition at 1 µg/mL for O=C(Nc1ccc(Cl)c(Cl)c1)c1cc(Br)ccc1O [Compound 143] (system: NF-κB activation).
-- reply 91.6
